System: U2OS
Assay: Multiplex assay against U2OS
Type: toxicity, cell-based
Settings: human, 24 h, 1 µM, compound concentration 1 uM, replicate 2

{"MOLECULE": "CCCn1c(=O)c2[nH]c(-c3cnn(Cc4cccc(C(F)(F)F)c4)c3)nc2n(CC)c1=O [GS 6201]", "Population Pyknosed Nuclei (%)": "4%"}
{"MOLECULE": "Cl.Oc1ccc2c3c1O[C@H]1c4[nH]c5c(c4C[C@@]4(O)[C@@H](C2)N(CC2CC2)CC[C@]314)C[C@@]1(O)[C@H]2Cc3ccc(O)c4c3[C@@]1(CCN2CC1CC1)[C@H]5O4", "Population Pyknosed Nuclei (%)": "4%"}
{"MOLECULE": "CCN1CCN(Cc2ccc(Nc3ncc(F)c(-c4cc(F)c5nc(C)n(C(C)C)c5c4)n3)nc2)CC1.CS(=O)(=O)O", "Population Pyknosed Nuclei (%)": "17%"}
{"MOLECULE": "Cl.O=C(c1ccc(Nc2nccc(-c3cc4ccccc4s3)n2)cc1)N1CCC(N2CCCC2)CC1", "Population Pyknosed Nuclei (%)": "5%"}
{"MOLECULE": "CNc1cc(Oc2cc(C(=O)Nc3cc(N4CCN(C)CC4)cc(C(F)(F)F)c3)ccc2C)ncn1", "Population Pyknosed Nuclei (%)": "19%"}
{"MOLECULE": "O=C1NC(=O)C(c2cnc3ccccn23)=C1c1cn2c3c(cc(F)cc13)CN(C(=O)N1CCCCC1)CC2 [LY-2090314]", "Population Pyknosed Nuclei (%)": "8%"}
{"MOLECULE": "Cl.O=c1c2cccn2c2ccccc2n1CCCN1CCC(c2ccc(Cl)cc2)CC1", "Population Pyknosed Nuclei (%)": "13%"}
{"MOLECULE": "COC(=N)c1nc2ccc3ncnc(Nc4ccc(OC)cc4F)c3c2s1", "Population Pyknosed Nuclei (%)": "7%"}

###

Test system: U2OS
Test: Incucyte cell viability with U2OS; note: filed as whole numbers so only -1 and 0 and 1 occur
Assay type: toxicity, cell-based
Details: human, 12 h, 10 µM, compound concentration 10 uM, replicate number 2, timepoint 12 hours
Collected Growth Rate values appear next to each entry.
MEASURE_NAME: Growth Rate

{"MOLECULE": "CCn1c(=O)c(-c2ccc(-c3cncs3)cc2Cl)cc2cnc(Nc3ccc(N4CCN(C)CC4)cc3)nc21", "MEASURED_RESULT": 1}
{"MOLECULE": "C=C1/C(=C\\C=C2/CCC[C@]3(C)[C@@H]([C@H](C)/C=C/[C@H](C)C(C)C)CC[C@@H]23)C[C@@H](O)C[C@@H]1O", "MEASURED_RESULT": 0}
{"MOLECULE": "O=C1NC(c2ccccn2)Sc2ccccc21 (centres undefined)", "MEASURED_RESULT": 1}
{"MOLECULE": "CN1CCN(c2cnc3c(C4CCN(C(=O)c5ccc(OC(F)(F)F)cc5N)CC4)ncnc3c2)CC1", "MEASURED_RESULT": 1}

###

Test system: Fibroblast
Experiment: Multiplex assay against human fibroblast
Type: toxicity, cell-based
Details: 12 h, 1 µM, compound concentration 1 uM, replicate 1
MEASURE_NAME: Total Cell Count

{"COMPOUND": "CCCS(=O)(=O)Nc1ccc(F)c(C(=O)c2c[nH]c3ncc(Cl)cc23)c1F [PLX-4720]", "MEASURE_NAME": "Total Cell Count", "MEASURED_RESULT": 234}
{"COMPOUND": "CCN1CCN(Cc2ccc(Nc3ncc(F)c(-c4cc(F)c5nc(C)n(C(C)C)c5c4)n3)nc2)CC1.CS(=O)(=O)O", "MEASURE_NAME": "Total Cell Count", "MEASURED_RESULT": 187}
{"COMPOUND": "CCCS(=O)(=O)c1nc(NC2CC2)cc(-c2ccc3c(ccn3C3CC(C)(C)NC(C)(C)C3)c2)n1", "MEASURE_NAME": "Total Cell Count", "MEASURED_RESULT": 107}
{"COMPOUND": "Cl.O=c1c2cccn2c2ccccc2n1CCCN1CCC(c2ccc(Cl)cc2)CC1", "MEASURE_NAME": "Total Cell Count", "MEASURED_RESULT": 123}

###

Test system: Fibroblast
Experiment: Multiplex assay against human fibroblast
Type: toxicity, cell-based
Conditions: 12 h, 10 µM, compound concentration 10 uM, replicate 1
MEASURE_NAME: Population Healthy Nuclei (%)

{"COMPOUND": "C=C1/C(=C\\C=C2/CCC[C@]3(C)[C@@H]([C@H](C)/C=C/[C@H](C)C(C)C)CC[C@@H]23)C[C@@H](O)C[C@@H]1O [DOXERCALCIFEROL]", "MEASURE_NAME": "Population Healthy Nuclei (%)", "MEASURED_RESULT": 21}
{"COMPOUND": "O=C(Cc1ccc(-c2ccc(OCCN3CCOCC3)cc2)cn1)NCc1ccccc1 [TIRBANIBULIN]", "MEASURE_NAME": "Population Healthy Nuclei (%)", "MEASURED_RESULT": 39}
{"COMPOUND": "COCC(=O)NC/C=C/c1ccc2ncnc(Nc3ccc(Oc4ccc(C)nc4)c(C)c3)c2c1 [CP-724714]", "MEASURE_NAME": "Population Healthy Nuclei (%)", "MEASURED_RESULT": 37}
{"COMPOUND": "CNc1cc(Oc2cc(C(=O)Nc3cc(N4CCN(C)CC4)cc(C(F)(F)F)c3)ccc2C)ncn1", "MEASURE_NAME": "Population Healthy Nuclei (%)", "MEASURED_RESULT": 26}
{"COMPOUND": "COc1cccc2cc(-c3nc([C@H]4CC[C@H](C(=O)O)CC4)n4ncnc(N)c34)[nH]c12 [OSI-027]", "MEASURE_NAME": "Population Healthy Nuclei (%)", "MEASURED_RESULT": 56}
{"COMPOUND": "O=C1NC(=O)C(c2cnc3ccccn23)=C1c1cn2c3c(cc(F)cc13)CN(C(=O)N1CCCCC1)CC2 [LY-2090314]", "MEASURE_NAME": "Population Healthy Nuclei (%)", "MEASURED_RESULT": 31}
{"COMPOUND": "COc1ccc(-c2ccc3c(N4CCOCC4)nc(N4C[C@@H](C)O[C@@H](C)C4)nc3n2)cc1CO [Ku-0063794]", "MEASURE_NAME": "Population Healthy Nuclei (%)", "MEASURED_RESULT": 20}
{"COMPOUND": "CCOC(=O)c1c(C)[nH]c2ccc3c(c12)CN1CCc2cc(OC)ccc2C1O3 (stereo not drawn)", "MEASURE_NAME": "Population Healthy Nuclei (%)", "MEASURED_RESULT": 38}
{"COMPOUND": "CCCn1c(=O)c2[nH]c(-c3cnn(Cc4cccc(C(F)(F)F)c4)c3)nc2n(CC)c1=O [GS 6201]", "MEASURE_NAME": "Population Healthy Nuclei (%)", "MEASURED_RESULT": 18}
{"COMPOUND": "COc1cc2ncnc(Nc3ccc(F)c(Cl)c3)c2cc1NC(=O)/C=C/CN1CCCCC1 [DACOMITINIB ANHYDROUS]", "MEASURE_NAME": "Population Healthy Nuclei (%)", "MEASURED_RESULT": 53}
{"COMPOUND": "O=C(Nc1cccnn1)N1CCC(=Cc2cccc(Oc3ccc(C(F)(F)F)cn3)c2)CC1", "MEASURE_NAME": "Population Healthy Nuclei (%)", "MEASURED_RESULT": 52}
{"COMPOUND": "Cn1nc(C(=O)NCc2ccc(C(=O)O)cc2)cc1-c1ccc2[nH]ccc2c1 [BI 4395]", "MEASURE_NAME": "Population Healthy Nuclei (%)", "MEASURED_RESULT": 57}
{"COMPOUND": "Cc1cn(-c2cc(NC(=O)c3ccc(C)c(Nc4nccc(-c5cccnc5)n4)c3)cc(C(F)(F)F)c2)cn1 [NILOTINIB]", "MEASURE_NAME": "Population Healthy Nuclei (%)", "MEASURED_RESULT": 46}
{"COMPOUND": "CCOc1cc2ncc(C#N)c(Nc3ccc(OCc4ccccn4)c(Cl)c3)c2cc1NC(=O)/C=C/CN(C)C [NERATINIB]", "MEASURE_NAME": "Population Healthy Nuclei (%)", "MEASURED_RESULT": 44}
{"COMPOUND": "CCn1c(=O)c(-c2ccc(-c3cncs3)cc2Cl)cc2cnc(Nc3ccc(N4CCN(C)CC4)cc3)nc21", "MEASURE_NAME": "Population Healthy Nuclei (%)", "MEASURED_RESULT": 9}
{"COMPOUND": "CCc1cccc(CC)c1NC(=O)c1nn(C)c2c1CCc1cnc(Nc3ccc(N4CCN(C)CC4)cc3OC)nc1-2", "MEASURE_NAME": "Population Healthy Nuclei (%)", "MEASURED_RESULT": 46}
{"COMPOUND": "CN1C2CCC1CC(OC(c1ccc(F)cc1)c1ccc(F)cc1)C2.Cl (stereo not drawn)", "MEASURE_NAME": "Population Healthy Nuclei (%)", "MEASURED_RESULT": 50}
{"COMPOUND": "Cl.O=c1c2cccn2c2ccccc2n1CCCN1CCC(c2ccc(Cl)cc2)CC1", "MEASURE_NAME": "Population Healthy Nuclei (%)", "MEASURED_RESULT": 42}
{"COMPOUND": "NC(=O)c1cccc(-c2cc(Nc3ccc(OC(F)(F)F)cc3)ncn2)c1", "MEASURE_NAME": "Population Healthy Nuclei (%)", "MEASURED_RESULT": 61}
{"COMPOUND": "COC(=N)c1nc2ccc3ncnc(Nc4ccc(OC)cc4F)c3c2s1", "MEASURE_NAME": "Population Healthy Nuclei (%)", "MEASURED_RESULT": 60}
{"COMPOUND": "O=C1N/C(=N/c2ccccc2F)S/C1=C\\c1ccc(C(=O)O)cc1", "MEASURE_NAME": "Population Healthy Nuclei (%)", "MEASURED_RESULT": 51}
{"COMPOUND": "O=C(Nc1ccc(-n2nc(-c3cccnc3)cc2C(F)(F)F)cn1)c1ccc(-c2ccccc2)c(F)c1 [BI 2049]", "MEASURE_NAME": "Population Healthy Nuclei (%)", "MEASURED_RESULT": 41}
{"COMPOUND": "Cc1cc(C)c(S(=O)(=O)N(Cc2ccc(-c3cccc(S(C)(=O)=O)c3)cc2)Cc2ccc(C(F)(F)F)o2)c(C)c1", "MEASURE_NAME": "Population Healthy Nuclei (%)", "MEASURED_RESULT": 27}
{"COMPOUND": "CCCS(=O)(=O)Nc1ccc(F)c(C(=O)c2c[nH]c3ncc(Cl)cc23)c1F [PLX-4720]", "MEASURE_NAME": "Population Healthy Nuclei (%)", "MEASURED_RESULT": 63}
{"COMPOUND": "CN1CCN(C(=O)C(C)(C)c2ccc(C(=O)Nc3cn4cc(-c5cc(C(C)(C)C)cc(C(C)(C)C)c5)ccc4n3)cc2)CC1 [T3-CLK-N]", "MEASURE_NAME": "Population Healthy Nuclei (%)", "MEASURED_RESULT": 45}
{"COMPOUND": "CCN1CCN(Cc2ccc(Nc3ncc(F)c(-c4cc(F)c5nc(C)n(C(C)C)c5c4)n3)nc2)CC1.CS(=O)(=O)O", "MEASURE_NAME": "Population Healthy Nuclei (%)", "MEASURED_RESULT": 13}
{"COMPOUND": "COc1cc(N2CCN(C)CC2)ccc1Nc1ncc2c(n1)N(C)c1ccccc1C(=O)N2C", "MEASURE_NAME": "Population Healthy Nuclei (%)", "MEASURED_RESULT": 38}
{"COMPOUND": "Cc1ccc2nc(NCCN)c3ncc(C)n3c2c1.O=C(O)C(F)(F)F.O=C(O)C(F)(F)F", "MEASURE_NAME": "Population Healthy Nuclei (%)", "MEASURED_RESULT": 52}
{"COMPOUND": "CNC(=O)c1ccc(Nc2nc(OC3CCCC3)c3c(-c4ccc5nc(C)oc5c4)c[nH]c3n2)c(OC)c1", "MEASURE_NAME": "Population Healthy Nuclei (%)", "MEASURED_RESULT": 50}
{"COMPOUND": "CCCS(=O)(=O)c1nc(NC2CC2)cc(-c2ccc3c(ccn3C3CC(C)(C)NC(C)(C)C3)c2)n1", "MEASURE_NAME": "Population Healthy Nuclei (%)", "MEASURED_RESULT": 4}
{"COMPOUND": "COc1ccc(S(=O)(=O)N(CCO)c2ccccc2CN(C)C/C=C/c2ccc(Cl)cc2)cc1.O=P(O)(O)O", "MEASURE_NAME": "Population Healthy Nuclei (%)", "MEASURED_RESULT": 55}
{"COMPOUND": "CN(C)C(=O)C(CCN1CCC(O)(c2ccc(Cl)cc2)CC1)(c1ccccc1)c1ccccc1.Cl [LOPERAMIDE HYDROCHLORIDE]", "MEASURE_NAME": "Population Healthy Nuclei (%)", "MEASURED_RESULT": 29}
{"COMPOUND": "Cc1ccc(C(=O)Nc2cccc(C(F)(F)F)c2)cc1Nc1nc(-c2cccnc2)nc2c1cnn2C", "MEASURE_NAME": "Population Healthy Nuclei (%)", "MEASURED_RESULT": 33}

This collection of values is drawn from ChEMBL document CHEMBL4689842.
